- PROTOCOL: Particle size and polydispersity index (Zetasizer Nano ZS)
- Type: physicochemical
- CONDITIONS USED: Table 1; DOPE 40:20:38.5:1.5, Luc mRNA
VALUE KIND: PDI

>>> recorded_measurement("CCCCCCCCCCCCN(CCCCCCCCCCCC)CC(=O)N1CCN(C(=O)CN(CCCCCCCCCCCC)CCN(CCCCCCCCC)CCCCCCCCC)CC1")
0.170
>>> recorded_measurement("CCCCCCCCCN(CCCCCCCCC)CCC(=O)N1CCN(C(=O)CCN(CCCCCCCCC)CCN(CCCCCCCCC)CCCCCCCCC)CC1")
0.100
>>> recorded_measurement("CCCCCCCCCCCCCCN(CCCCCCCCCCCCCC)CCN1CCN(CCN(CCCCCCCCC)CCN(CCCCCCCCC)CCCCCCCCC)CC1")
0.150
>>> recorded_measurement("CCCCCCCCCN(CCCCCCCCC)CCN(CCCCCCCCC)CC(=O)N1CCN(C(=O)CN(CCCCCCCCC)CCCCCCCCC)CC1")
0.120
>>> recorded_measurement("CCCCCCCCCCCCN(CCCCCCCCCCCC)CCN(CCCCCCCCCCCC)CC(=O)N1CCN(C(=O)CN(CCCCCCCCC)CCCCCCCCC)CC1")
0.130
>>> recorded_measurement("CCCCCCCC/C=C\\CCCCCCCCN(CCCCCCCC/C=C\\CCCCCCCC)CCN1CCN(CCN(CCCCCCCCCCCC)CCN(CCCCCCCCCCCC)CCCCCCCCCCCC)CC1")
0.099
>>> recorded_measurement("CCCCCCCCCCCCCCN(CCCCCCCCCCCCCC)CCN(CCCCCCCCCCCCCC)CCN1CCN(CCN(CCCCCCCCCCCCCC)CCCCCCCCCCCCCC)CC1")
0.160
>>> recorded_measurement("CCCCCCCCCCCCCCN(CCCCCCCCCCCCCC)CCN(CCCCCCCCCCCCCC)CCN1CCN(CCN(CCCCCCCCC)CCCCCCCCC)CC1")
0.110
>>> recorded_measurement("CCCCCCCCCN(CCCCCCCCC)CCN(CCCCCCCCC)CC(=O)N1CCN(C(=O)CN(CCCCCCCCC)CCCCCCCC(=O)OC)CC1")
0.190
>>> recorded_measurement("CCCCCCCCCCCCN(CCCCCCCCCCCC)CCN(CCCCCCCCCCCC)CC(=O)N1CC2CC1CN2C(=O)CN(CCCCCCCCC)CCCCCCCCC (stereo not drawn)")
0.220
>>> recorded_measurement("CCCCCCCCCN(CCCCCCCCC)CCN(CCCCCCCC(=O)OC)CC(=O)N1CCN(C(=O)CN(CCCCCCCCC)CCCCCCCCC)CC1")
0.180
>>> recorded_measurement("CCCCCCCCCCCCN(CCCCCCCCCCCC)CCN(CCCCCCCCC)CC(=O)N1CCN(C(=O)CN(CCCCCCCCCCCC)CCCCCCCCCCCC)CC1")
0.130
>>> recorded_measurement("CCCCCCCCCCCCCCN(CCCCCCCCCCCCCC)CC(=O)N1CCN(C(=O)CN(CCCCCCCCC)CCN(CCCCCCCCC)CCCCCCCCC)CC1")
0.190
>>> recorded_measurement("CCCCCCCCCN(CCCCCCCCC)CCN(CCCCCCCCC)CC(=O)N1CC2CC1CN2C(=O)CN(CCCCCCCCC)CCCCCCCCC (stereo not drawn)")
0.190
>>> recorded_measurement("CCCCCCCCCN(CCCCCCCCC)CCC1CCN(C(=O)CN(CCCCCCCCC)CCN(CCCCCCCCC)CCCCCCCCC)CC1")
0.200
